Tested on: HepG2
protocol_summary: cytotoxicity call (relative viability < 0.9)
assay_setup: 10 µM
Out of some 39,000 compounds screened, about 3,300 (8.5%) were called active. For the sample, actives were picked, then their nearest neighbours and some compounds at random.
Classes used: active, inactive

molecule: CC(=O)O[C@H]1C[C@](C)(O)C2=C[C@@H](O)[C@@](C)(O)[C@@H]2[C@H]2OC(=O)[C@@H](C)[C@@H]21
assigned_label: inactive
//
molecule: COc1ccc(S(=O)(=O)N(C)C[C@H]2OCCCC[C@H](C)Oc3ccc(NS(=O)(=O)c4ccc(Cl)cc4)cc3C(=O)N([C@H](C)CO)C[C@H]2C)cc1
assigned_label: active
//
molecule: COc1ccc(S(=O)(=O)Nc2ccc3c(c2)C(=O)N([C@@H](C)CO)C[C@H](C)[C@H](CN(C)S(=O)(=O)c2ccc(Cl)cc2)OCCCC[C@@H](C)O3)cc1
assigned_label: active
//
molecule: Cc1noc(N)c1C(=O)O
assigned_label: inactive
//
molecule: CC1=C(C(=O)O)N2C(=O)[C@@H](NC(=O)[C@H](N)c3ccc(O)cc3)[C@H]2SC1
assigned_label: inactive
//
molecule: COc1ccc(S(=O)(=O)N(C)C[C@@H]2OCCCC[C@@H](C)Oc3ccc(NS(=O)(=O)c4cn(C)cn4)cc3C(=O)N([C@@H](C)CO)C[C@H]2C)cc1
assigned_label: inactive
//
molecule: Cc1noc(C)c1NC(=O)Nc1cccc2c1O[C@@H](CN(C)Cc1ccc(Cl)c(Cl)c1)[C@@H](C)CN([C@@H](C)CO)C2=O
assigned_label: inactive
//
molecule: O=C(C[C@H]1C[C@H]2c3cc(NC(=O)Nc4ccc(C(F)(F)F)cc4)ccc3O[C@H]2[C@H](CO)O1)NCc1cc(F)ccc1F
assigned_label: inactive
//
molecule: C[C@@H]1COCCS(=O)(=O)N1C
assigned_label: inactive
//
molecule: C[C@@H]1CN([C@H](C)CO)C(=O)c2cc(NC(=O)C3CCCCC3)ccc2O[C@@H]1CN(C)C(=O)Nc1ccc(C(F)(F)F)cc1
assigned_label: inactive
//
molecule: COC12C(COC(N)=O)C3=C(C(=O)C(C)=C(N)C3=O)N1CC1NC12 (stereo not given)
assigned_label: active
//
molecule: COc1ccc(S(=O)(=O)N(C)C[C@H]2OCCCC[C@@H](C)Oc3ccc(NS(=O)(=O)c4ccc(Cl)cc4)cc3C(=O)N([C@H](C)CO)C[C@H]2C)cc1
assigned_label: active
//
molecule: COc1ccc(S(=O)(=O)Nc2ccc3c(c2)C(=O)N([C@H](C)CO)C[C@@H](C)[C@H](CN(C)S(=O)(=O)c2ccc(Cl)cc2)OCCCC[C@@H](C)O3)cc1
assigned_label: inactive
//
molecule: CO[C@@]12[C@H](COC(N)=O)C3=C(C(=O)C(C)=C(N)C3=O)N1C[C@@H]1N[C@@H]12
assigned_label: inactive
//
molecule: C[C@@H]1CN([C@@H](C)CO)C(=O)c2cc(NC(=O)Nc3ccc(F)cc3)ccc2O[C@H]1CN(C)Cc1ccc(Cl)c(Cl)c1
assigned_label: inactive

---

System: HepG2
protocol_summary: cytotoxicity call (relative viability < 0.9)
assay_setup: 10 µM
The campaign covered roughly 39,000 compounds. About 3,300 (8.5%) were called active. This excerpt belongs to a sample that is enriched for actives.
Outcome codes: label 1 = active, label 0 = inactive

record_smiles: C[C@H]1[C@H](NC(=O)/C(=N\OC(C)(C)C(=O)O)c2csc(N)n2)C(=O)N1S(=O)(=O)O
assigned_label: label 0
//
record_smiles: C[C@H]1CN([C@@H](C)CO)C(=O)c2cccc(NC(=O)NC3CCCCC3)c2O[C@@H]1CN(C)Cc1ccc(Oc2ccccc2)cc1
assigned_label: label 0
//
record_smiles: Cc1cc(O)c(-c2ccc([C@@H](C)CN)cc2)c2c1[nH]c(=O)c1sccc12
assigned_label: label 1
//
record_smiles: C[C@@H]1CN([C@H](C)CO)C(=O)c2cc(NC(=O)Nc3ccc(F)cc3)ccc2O[C@H]1CN(C)CC1CCCCC1
assigned_label: label 0
//
record_smiles: NC(=S)c1ccc(-n2cncn2)nc1
assigned_label: label 0
//
record_smiles: C[C@@H](O)CNC(=O)C(=O)NC(C)(C)C
assigned_label: label 0
//
record_smiles: C[C@H]1CCCCO[C@@H](CN(C)C(=O)Nc2ccccc2)[C@@H](C)CN([C@@H](C)CO)C(=O)c2cc(NC(=O)Nc3ccccc3)ccc2O1
assigned_label: label 0
//
record_smiles: C[C@H]1CN([C@@H](C)CO)C(=O)c2cc(NC(=O)Nc3ccc(F)cc3)ccc2O[C@@H]1CN(C)CC1CCCCC1
assigned_label: label 1
//
record_smiles: Cc1cc(C(C)(C)C)c(O)c(C(C)(C)C)c1
assigned_label: label 1
//
record_smiles: C=C[C@@H]1C[C@]1(NC(=O)[C@@H]1C[C@@H]2CN1C(=O)[C@H](C(C)(C)C)NC(=O)O[C@@H]1C[C@H]1CCCCCc1nc3ccc(OC)cc3nc1O2)C(=O)NS(=O)(=O)C1CC1
assigned_label: label 0
//
record_smiles: C[C@@H]1CN([C@@H](C)CO)C(=O)c2cccc(NC(=O)CCCCCC(=O)Nc3ccccc3N)c2O[C@@H]1CN(C)Cc1ccc(Cl)c(Cl)c1
assigned_label: label 0
//
record_smiles: C[C@@H]1CN([C@@H](C)CO)C(=O)c2cccc(NC(=O)NC3CCCCC3)c2O[C@@H]1CN(C)Cc1ccc(Oc2ccccc2)cc1
assigned_label: label 0
//
record_smiles: C[C@H](CO)N1C[C@H](C)[C@@H](CN(C)CC2CCCCC2)Oc2ccc(NC(=O)Nc3ccc(F)cc3)cc2C1=O
assigned_label: label 0
//
record_smiles: C[C@@H]1CN([C@H](C)CO)C(=O)c2cccc(NC(=O)CCCCCC(=O)Nc3ccccc3N)c2O[C@@H]1CN(C)Cc1ccc(-c2ccccc2)cc1
assigned_label: label 1
//
record_smiles: C[C@H](CO)N1C[C@H](C)[C@H](CN(C)Cc2ccc(Oc3ccccc3)cc2)Oc2c(NC(=O)NC3CCCCC3)cccc2C1=O
assigned_label: label 1
//
record_smiles: COCC#Cc1ccc2c(c1)O[C@H](CN(C)S(=O)(=O)c1cccc(OC)c1)[C@@H](C)CN([C@@H](C)CO)S2(=O)=O
assigned_label: label 0
//
record_smiles: C[C@@H]1CN([C@H](C)CO)C(=O)c2cccc(NC(=O)CCCCCC(=O)Nc3ccccc3N)c2O[C@H]1CN(C)Cc1ccc(-c2ccccc2)cc1
assigned_label: label 0
//
record_smiles: C[C@H]1CCCCO[C@@H](CN(C)S(=O)(=O)c2ccc(F)cc2)[C@@H](C)CN([C@@H](C)CO)C(=O)c2cc(NC(=O)Nc3cccc4ccccc34)ccc2O1
assigned_label: label 0
//
record_smiles: O=C(CCCCCNC(=O)OCCCCO[C@@H]1C[C@H](C2CCCCC2)C=C(C(=O)N2CCOCC2)O1)NO
assigned_label: label 0
//
record_smiles: C[C@H](CO)N1C[C@H](C)[C@H](CN(C)CC2CCCCC2)Oc2ccc(NC(=O)Nc3ccc(F)cc3)cc2C1=O
assigned_label: label 0
//
record_smiles: CC(C)(Sc1cc(C(C)(C)C)c(O)c(C(C)(C)C)c1)Sc1cc(C(C)(C)C)c(O)c(C(C)(C)C)c1
assigned_label: label 0
//
record_smiles: C#CCOC(=O)[C@@H]1[C@@H](C(=O)O)[C@@H]2C=C[C@@H]1C2
assigned_label: label 0
//
record_smiles: Cc1noc(C)c1NC(=O)N[C@@H]1CC[C@H](CC(=O)NCCCN(C)C)O[C@@H]1CO
assigned_label: label 0
//
record_smiles: CC(=O)n1cc([C@@H]2C=C(C(=O)N3CCN(C)CC3)O[C@H](OCc3ccc(CO)cc3)C2)c2ccccc21
assigned_label: label 0
//
record_smiles: COc1ccc(C#Cc2ccc([C@H]3[C@@H](CO)N4CCCCN(S(=O)(=O)c5cn(C)cn5)C[C@H]34)cc2)cc1
assigned_label: label 0
//
record_smiles: C[C@H](CO)N1C[C@H](C)[C@@H](CN(C)Cc2ccc(-c3ccccc3)cc2)Oc2c(NC(=O)CCCCCC(=O)Nc3ccccc3N)cccc2C1=O
assigned_label: label 1
//
record_smiles: c1cc([C@@H]2CNCCN2)[nH]n1
assigned_label: label 0
//
record_smiles: CN(C)CCCCNC(=O)[C@H]1C[C@H]2C(=O)NCC(=O)N2[C@H]1c1cccc(OCCO)c1
assigned_label: label 0
//
record_smiles: Cc1noc(C)c1NC(=O)N(C)C[C@@H]1Oc2ccc(NC(=O)Cn3cnnn3)cc2C(=O)N([C@@H](C)CO)C[C@H]1C
assigned_label: label 0
//
record_smiles: COc1ccc(C=Cc2cc(O)cc(O[C@@H]3O[C@H](CO)[C@@H](O)[C@H](O)[C@H]3O)c2)cc1
assigned_label: label 0
//
record_smiles: O=C(C[C@H]1C=C[C@H](NC(=O)CN2CCOCC2)[C@@H](CO)O1)NCc1cccc(F)c1
assigned_label: label 0
